The following compounds are shown together with reported pKi values.
# target-or-system: human MCH-1 receptor (Homo sapiens (Human), UniProt Q99705)
# Sequence (Q99705 whole entry): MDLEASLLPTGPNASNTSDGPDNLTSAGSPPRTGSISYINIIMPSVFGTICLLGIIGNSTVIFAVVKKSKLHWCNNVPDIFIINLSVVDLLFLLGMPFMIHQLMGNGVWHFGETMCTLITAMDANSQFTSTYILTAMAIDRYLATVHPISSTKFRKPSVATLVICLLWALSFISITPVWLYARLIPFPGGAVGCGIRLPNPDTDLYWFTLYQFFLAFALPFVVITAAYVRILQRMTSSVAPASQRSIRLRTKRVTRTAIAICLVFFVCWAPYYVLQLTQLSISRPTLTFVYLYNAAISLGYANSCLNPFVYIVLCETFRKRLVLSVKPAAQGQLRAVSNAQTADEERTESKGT
pKi: −log10 of the molar value. Structures can show the parent of a compound that is named as a salt.
measurement-label: pKi

- O=c1cc(OCc2ccc(F)cn2)ccn1-c1ccc2c3c([nH]c2c1)CCNCC3 [Example 13, dihydrochloride]: 7.99
- Cn1c2c(c3ccc(-n4ncc(OCc5ccc(F)cn5)cc4=O)cc31)CCNCC2 [Example 10, dihydrochloride]: 7.87
- Cl.Cn1c2c(c3ccc(-n4ccc(OCc5ccccc5)cc4=O)nc31)CCNCC2 [Example 77, hydrochloride]: 7.96
- Cn1c2c(c3ccc(-n4ccc(OCc5ccc(F)cc5F)cc4=O)nc31)CCNCC2 [Example 83, hydrochloride]: 7.89
